target: MAO-A enzyme (Homo sapiens (Human), UniProt P21397)
Sequence (P21397 whole entry): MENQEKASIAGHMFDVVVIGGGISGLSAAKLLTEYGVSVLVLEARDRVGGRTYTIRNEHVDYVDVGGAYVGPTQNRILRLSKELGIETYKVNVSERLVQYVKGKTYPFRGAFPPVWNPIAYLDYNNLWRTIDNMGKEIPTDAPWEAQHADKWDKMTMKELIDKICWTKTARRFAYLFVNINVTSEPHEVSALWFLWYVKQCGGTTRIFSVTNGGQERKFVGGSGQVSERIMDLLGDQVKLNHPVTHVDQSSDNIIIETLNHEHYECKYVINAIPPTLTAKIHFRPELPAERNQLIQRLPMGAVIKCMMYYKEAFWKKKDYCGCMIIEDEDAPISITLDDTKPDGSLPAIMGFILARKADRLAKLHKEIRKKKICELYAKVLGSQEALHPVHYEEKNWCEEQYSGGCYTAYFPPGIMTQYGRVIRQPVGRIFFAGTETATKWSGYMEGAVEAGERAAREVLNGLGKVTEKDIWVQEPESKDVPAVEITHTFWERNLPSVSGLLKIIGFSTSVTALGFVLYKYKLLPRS
experiment: Measurement of MAO-A inhibitory activity (MAO-Glo Assay)
Assay type: biochemical
Counter-ions that a name gives are not always drawn.
Entries annotated with measured IC50
Respond with the bare value in µM.

Problem: Return reported IC50; argument: Cc1cc(NC(=O)c2csc([C@@H]3C[C@H]3NCC3CCOCC3)c2)no1 [Example 81, hydrochloride]
Result: 36

Problem: Return reported IC50; argument: Cc1nnc(NC(=O)c2cc([C@@H]3C[C@H]3NCC3CC3)sc2C)s1 (relative stereo) [Example 69, dihydrochloride]
Result: 33

Problem: Return reported IC50; argument: O=C(NC1CCCC1)c1csc(C2CC2NC2CCOCC2)c1 (single isomer, unassigned) [Example 39]
Result: 23
